Molecular target: Ephrin type-A receptor 6 (Homo sapiens)
READOUT_LABEL: IC50 (nM)
Please reply with the bare figure in nM and do not write the unit itself.

Problem: Please supply the value of reported IC50 for the item CN1C(=O)[C@@H](N2CCc3c(nn(Cc4ccccc4)c3Br)C2=O)COc2ccccc21
Result: 1000

----------
Target: L-type calcium channel, dihydropyridine site (Cav1.2 alpha-1C) (Homo sapiens)
Sequence (Q13936 whole entry): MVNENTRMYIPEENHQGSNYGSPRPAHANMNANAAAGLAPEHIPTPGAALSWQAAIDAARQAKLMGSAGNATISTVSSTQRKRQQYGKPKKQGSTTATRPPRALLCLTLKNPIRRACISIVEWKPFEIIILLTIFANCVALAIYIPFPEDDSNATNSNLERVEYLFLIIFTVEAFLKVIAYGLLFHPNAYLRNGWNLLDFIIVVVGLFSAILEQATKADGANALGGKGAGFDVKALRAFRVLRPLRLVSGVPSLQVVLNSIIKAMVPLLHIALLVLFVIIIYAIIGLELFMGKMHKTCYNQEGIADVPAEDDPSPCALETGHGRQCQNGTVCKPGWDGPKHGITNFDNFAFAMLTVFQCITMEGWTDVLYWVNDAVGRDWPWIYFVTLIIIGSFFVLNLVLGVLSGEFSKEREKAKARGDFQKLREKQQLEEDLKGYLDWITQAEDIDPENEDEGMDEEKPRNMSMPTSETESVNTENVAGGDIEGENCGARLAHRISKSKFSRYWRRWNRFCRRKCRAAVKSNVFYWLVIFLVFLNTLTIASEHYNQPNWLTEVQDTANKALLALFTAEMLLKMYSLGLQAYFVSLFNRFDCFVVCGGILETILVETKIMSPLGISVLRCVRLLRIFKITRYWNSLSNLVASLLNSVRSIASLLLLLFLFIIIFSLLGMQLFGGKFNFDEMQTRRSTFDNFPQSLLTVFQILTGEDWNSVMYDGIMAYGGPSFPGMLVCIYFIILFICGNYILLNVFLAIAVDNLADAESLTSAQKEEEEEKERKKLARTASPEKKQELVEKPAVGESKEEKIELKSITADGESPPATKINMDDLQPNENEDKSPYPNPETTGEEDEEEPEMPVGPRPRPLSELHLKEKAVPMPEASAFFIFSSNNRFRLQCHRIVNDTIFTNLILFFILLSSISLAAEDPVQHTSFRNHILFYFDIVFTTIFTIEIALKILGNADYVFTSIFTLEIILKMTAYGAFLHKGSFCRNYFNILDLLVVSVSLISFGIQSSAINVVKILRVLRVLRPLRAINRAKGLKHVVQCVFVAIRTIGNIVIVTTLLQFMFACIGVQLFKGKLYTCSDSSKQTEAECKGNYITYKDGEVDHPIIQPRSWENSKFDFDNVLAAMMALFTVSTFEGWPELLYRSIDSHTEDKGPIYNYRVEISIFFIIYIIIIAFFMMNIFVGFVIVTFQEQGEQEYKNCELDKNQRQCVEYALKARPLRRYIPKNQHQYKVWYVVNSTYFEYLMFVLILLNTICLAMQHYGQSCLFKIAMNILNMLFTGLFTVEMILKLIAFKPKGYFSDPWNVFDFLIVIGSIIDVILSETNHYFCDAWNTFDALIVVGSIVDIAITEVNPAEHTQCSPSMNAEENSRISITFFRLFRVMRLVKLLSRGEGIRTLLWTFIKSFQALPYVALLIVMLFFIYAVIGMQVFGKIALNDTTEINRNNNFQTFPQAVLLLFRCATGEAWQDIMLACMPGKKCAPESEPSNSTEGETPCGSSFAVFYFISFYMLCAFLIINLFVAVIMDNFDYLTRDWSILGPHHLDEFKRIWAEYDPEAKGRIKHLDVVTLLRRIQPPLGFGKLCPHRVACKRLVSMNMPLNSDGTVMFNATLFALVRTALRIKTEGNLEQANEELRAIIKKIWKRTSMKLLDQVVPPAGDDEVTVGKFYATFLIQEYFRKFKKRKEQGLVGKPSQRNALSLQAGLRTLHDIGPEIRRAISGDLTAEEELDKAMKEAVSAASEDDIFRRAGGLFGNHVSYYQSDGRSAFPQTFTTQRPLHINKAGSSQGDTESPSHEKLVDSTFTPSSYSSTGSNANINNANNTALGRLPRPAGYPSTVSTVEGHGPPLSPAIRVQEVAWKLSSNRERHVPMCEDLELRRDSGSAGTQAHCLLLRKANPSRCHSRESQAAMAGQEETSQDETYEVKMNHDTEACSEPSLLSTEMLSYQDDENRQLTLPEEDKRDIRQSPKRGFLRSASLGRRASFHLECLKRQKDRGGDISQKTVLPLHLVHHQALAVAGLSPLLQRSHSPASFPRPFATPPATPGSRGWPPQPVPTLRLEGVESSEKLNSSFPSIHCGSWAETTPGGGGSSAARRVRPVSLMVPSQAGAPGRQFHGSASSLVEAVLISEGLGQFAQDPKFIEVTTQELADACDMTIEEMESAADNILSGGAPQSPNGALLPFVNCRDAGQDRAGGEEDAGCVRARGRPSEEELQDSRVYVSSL
Experiment: Inhibition of Calcium Channel L-Type, Dihydropyridine at 10 µM in the Eurofins-Panlabs radioligand binding assay (Eurofins_assay_214600)
Design: ligand concentration 0.1 nM, non-specific ligand with concentration 1 µM Nitrendipine, incubation time 90 min, incubation temperature 25 °C
Conditions: Wistar, rat, rat cerebral cortex preparation, probe [3H] Nitrendipine; compound concentration 10 uM; target entry is the homologue from another species
READOUT_LABEL: inhibition at 90 min, 10 µM

Problem: Please supply the value of reported inhibition at 90 min, 10 µM for the item CN1C(=O)[C@@H](N2CCc3c(nn(Cc4ccccc4)c3Br)C2=O)COc2ccccc21
Result: 29% (not active)

----------
Molecular target: Mitogen-activated protein kinase kinase kinase kinase 1 (Homo sapiens)
Sequence (Q92918 whole entry): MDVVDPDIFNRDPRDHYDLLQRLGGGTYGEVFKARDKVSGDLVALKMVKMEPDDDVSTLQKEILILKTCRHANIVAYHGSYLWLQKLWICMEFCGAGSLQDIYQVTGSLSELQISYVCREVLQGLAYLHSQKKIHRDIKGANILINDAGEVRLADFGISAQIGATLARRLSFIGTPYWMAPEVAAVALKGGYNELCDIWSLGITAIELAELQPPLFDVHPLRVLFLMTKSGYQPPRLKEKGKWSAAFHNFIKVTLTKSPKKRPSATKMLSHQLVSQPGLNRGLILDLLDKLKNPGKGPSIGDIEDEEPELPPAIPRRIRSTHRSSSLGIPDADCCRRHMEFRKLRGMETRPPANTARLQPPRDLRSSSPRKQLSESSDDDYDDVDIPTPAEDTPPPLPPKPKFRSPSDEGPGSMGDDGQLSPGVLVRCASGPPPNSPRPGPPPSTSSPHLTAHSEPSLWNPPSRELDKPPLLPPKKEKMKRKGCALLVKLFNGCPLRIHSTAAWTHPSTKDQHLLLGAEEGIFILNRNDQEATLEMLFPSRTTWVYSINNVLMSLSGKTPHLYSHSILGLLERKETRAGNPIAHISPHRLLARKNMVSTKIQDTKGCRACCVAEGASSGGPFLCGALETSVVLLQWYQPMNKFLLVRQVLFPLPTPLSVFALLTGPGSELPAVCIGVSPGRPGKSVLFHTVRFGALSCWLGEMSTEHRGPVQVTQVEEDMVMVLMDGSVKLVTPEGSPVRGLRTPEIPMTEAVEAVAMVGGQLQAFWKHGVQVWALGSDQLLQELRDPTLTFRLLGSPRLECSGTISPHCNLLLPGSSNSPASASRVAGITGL
Assay: HPK1(M4K1LGY1) Takeda global kinase panel
READOUT_LABEL: IC50 (nM)
Please reply with the bare figure in nM and do not write the unit itself.

Problem: Please supply the value of reported IC50 for the item CN1C(=O)[C@@H](N2CCc3c(nn(Cc4ccccc4)c3Br)C2=O)COc2ccccc21
Result: 1000

----------
Target: Ribosomal protein S6 kinase alpha-6 (Homo sapiens, UniProt Q9UK32)
Sequence (Q9UK32 whole entry): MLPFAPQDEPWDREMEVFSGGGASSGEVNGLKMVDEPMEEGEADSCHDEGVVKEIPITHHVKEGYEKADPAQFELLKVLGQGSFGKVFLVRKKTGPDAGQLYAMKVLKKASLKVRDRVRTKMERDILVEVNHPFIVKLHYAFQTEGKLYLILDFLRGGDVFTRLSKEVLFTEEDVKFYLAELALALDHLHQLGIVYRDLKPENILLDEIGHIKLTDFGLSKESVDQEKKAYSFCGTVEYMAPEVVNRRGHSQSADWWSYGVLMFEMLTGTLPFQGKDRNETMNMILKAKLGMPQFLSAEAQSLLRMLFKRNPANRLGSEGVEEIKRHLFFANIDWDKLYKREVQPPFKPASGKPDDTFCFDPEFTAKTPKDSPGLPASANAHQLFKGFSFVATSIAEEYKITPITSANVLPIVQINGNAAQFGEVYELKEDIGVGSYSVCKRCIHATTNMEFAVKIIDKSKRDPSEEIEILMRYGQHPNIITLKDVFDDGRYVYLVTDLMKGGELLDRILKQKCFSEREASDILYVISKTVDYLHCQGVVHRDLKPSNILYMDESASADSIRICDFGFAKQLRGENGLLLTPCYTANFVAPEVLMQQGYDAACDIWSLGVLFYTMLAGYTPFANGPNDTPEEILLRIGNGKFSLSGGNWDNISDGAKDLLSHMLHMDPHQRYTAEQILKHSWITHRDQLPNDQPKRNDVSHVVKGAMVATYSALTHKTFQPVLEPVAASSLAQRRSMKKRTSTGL
READOUT_LABEL: IC50
Just so you know, I need the unit written after the number.

Problem: Find the measured IC50 of CN1C(=O)[C@@H](N2CCc3c(nn(Cc4ccccc4)c3Br)C2=O)COc2ccccc21 with Ribosomal protein S6 kinase alpha-6 (Homo sapiens, UniProt Q9UK32) as test system.
Result: 1 µM

----------
Biological target: Casein kinase I isoform gamma-1 (Homo sapiens)
Sequence (Q9HCP0 whole entry, canonical isoform): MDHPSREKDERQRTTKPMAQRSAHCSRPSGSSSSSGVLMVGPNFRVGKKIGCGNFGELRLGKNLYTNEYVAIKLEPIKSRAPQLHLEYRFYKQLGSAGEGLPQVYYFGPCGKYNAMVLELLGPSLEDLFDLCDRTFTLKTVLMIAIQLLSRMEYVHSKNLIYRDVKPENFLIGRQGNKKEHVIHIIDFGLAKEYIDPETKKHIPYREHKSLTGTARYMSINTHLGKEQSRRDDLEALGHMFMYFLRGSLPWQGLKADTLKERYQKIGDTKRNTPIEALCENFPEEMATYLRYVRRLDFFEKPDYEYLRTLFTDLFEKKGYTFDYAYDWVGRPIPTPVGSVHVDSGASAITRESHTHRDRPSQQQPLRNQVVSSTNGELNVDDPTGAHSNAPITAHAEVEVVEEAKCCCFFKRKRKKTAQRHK
Test: CK1gamma1(C1G1LGI1) Takeda global kinase panel
READOUT_LABEL: IC50 (nM)
Please reply with the bare figure in nM and do not write the unit itself.

Problem: Find the measured IC50 of CN1C(=O)[C@@H](N2CCc3c(nn(Cc4ccccc4)c3Br)C2=O)COc2ccccc21 [TP-030-2] with Casein kinase I isoform gamma-1 (Homo sapiens) as test system.
Result: 1000

----------
Biological target: LIM domain kinase 2 (Homo sapiens)
READOUT_LABEL: IC50 (µM)
Please reply with the bare figure in µM and do not write the unit itself.

Problem: Find the measured IC50 of CN1C(=O)[C@@H](N2CCc3c(nn(Cc4ccccc4)c3Br)C2=O)COc2ccccc21 with LIM domain kinase 2 (Homo sapiens) as test system.
Result: 1

----------
Biological target: Serine/threonine-protein kinase SIK3 (Homo sapiens, UniProt Q9Y2K2)
READOUT_LABEL: IC50

Problem: Find the measured IC50 of CN1C(=O)[C@@H](N2CCc3c(nn(Cc4ccccc4)c3Br)C2=O)COc2ccccc21 with Serine/threonine-protein kinase SIK3 (Homo sapiens, UniProt Q9Y2K2) as test system.
Result: 1000 nM

----------
Target: Cyclin-dependent kinase 6 (Homo sapiens, UniProt Q00534)
Sequence (Q00534 whole entry): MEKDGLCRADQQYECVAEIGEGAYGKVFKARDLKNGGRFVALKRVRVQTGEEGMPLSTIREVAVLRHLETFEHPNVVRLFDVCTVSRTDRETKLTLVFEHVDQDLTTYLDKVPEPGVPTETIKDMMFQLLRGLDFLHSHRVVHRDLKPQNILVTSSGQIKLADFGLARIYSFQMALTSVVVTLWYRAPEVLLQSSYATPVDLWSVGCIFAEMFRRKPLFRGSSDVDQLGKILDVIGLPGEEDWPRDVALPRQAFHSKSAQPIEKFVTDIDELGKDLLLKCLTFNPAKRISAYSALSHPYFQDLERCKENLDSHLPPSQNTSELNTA
READOUT_LABEL: pIC50
Reminder that pIC50 means the negative base-10 logarithm of the concentration expressed in mol/L.

Problem: Please supply the value of reported pIC50 for the item CN1C(=O)[C@@H](N2CCc3c(nn(Cc4ccccc4)c3Br)C2=O)COc2ccccc21
Result: 6.00
